Just for reference, patent US11584747B2 is where these values come from.

target desc: human DGKζ (Homo sapiens (Human), UniProt Q13574)
Sequence (Q13574 other isoform, or with tags, fused parts or gaps): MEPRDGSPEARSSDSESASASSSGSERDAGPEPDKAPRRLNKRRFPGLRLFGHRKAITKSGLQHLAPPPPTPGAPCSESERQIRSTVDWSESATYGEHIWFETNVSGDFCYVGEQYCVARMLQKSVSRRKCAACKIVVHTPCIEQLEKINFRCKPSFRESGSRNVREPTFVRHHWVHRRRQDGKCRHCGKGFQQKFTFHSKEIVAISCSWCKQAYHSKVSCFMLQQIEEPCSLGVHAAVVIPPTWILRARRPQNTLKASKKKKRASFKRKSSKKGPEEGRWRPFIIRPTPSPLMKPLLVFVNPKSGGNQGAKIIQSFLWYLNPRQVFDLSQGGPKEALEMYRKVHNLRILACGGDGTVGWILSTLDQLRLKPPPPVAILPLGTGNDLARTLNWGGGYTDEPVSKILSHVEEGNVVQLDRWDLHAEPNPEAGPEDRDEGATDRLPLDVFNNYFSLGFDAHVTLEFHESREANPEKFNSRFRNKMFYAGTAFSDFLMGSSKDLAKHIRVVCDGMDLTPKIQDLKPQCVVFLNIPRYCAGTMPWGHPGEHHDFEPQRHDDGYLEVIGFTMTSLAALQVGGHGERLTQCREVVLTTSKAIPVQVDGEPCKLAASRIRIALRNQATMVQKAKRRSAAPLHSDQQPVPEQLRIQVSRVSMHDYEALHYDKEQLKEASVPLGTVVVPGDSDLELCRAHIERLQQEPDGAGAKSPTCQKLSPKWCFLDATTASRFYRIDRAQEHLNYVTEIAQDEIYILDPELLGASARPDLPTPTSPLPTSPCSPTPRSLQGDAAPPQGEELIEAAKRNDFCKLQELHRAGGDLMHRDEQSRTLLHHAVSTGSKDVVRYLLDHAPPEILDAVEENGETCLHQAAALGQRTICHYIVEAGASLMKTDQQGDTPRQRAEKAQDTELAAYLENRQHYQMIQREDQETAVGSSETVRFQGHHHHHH
experiment description: DGKζ LIPGLO assay (extruded liposome substrate, ADP-Glo luminescence)
Format: biochemical
protocol conditions: liposome assay; read-out: DGK zeta LIPGLO IC50
readout name: IC50 (nM)

(a) CC(c1ccc(F)c(F)c1)N1C[C@H](C)N(c2nc(=O)n(C)c3ccc(C#N)nc23)C[C@H]1C (single isomer, unassigned) [Example 148]
(b) CCC(c1ccc(C)cc1)N1C[C@H](CC)N(c2nc(=O)n(C)c3ccc(C#N)nc23)C[C@H]1CC (stereo partly drawn) [Example 237]
// pick larger IC50 from pair: a vs b Field: selected label. Fill in the label of the entry you choose.
b
(b: 3960 nM, a: 100 nM)

(A) CC[C@H]1CN(C(C)c2ccc3oc(C4CC4)nc3c2)[C@H](CC)CN1c1nc(=O)n(C)c2ccc(C#N)nc12 (stereo partly drawn) [Example 254]
(B) CC[C@H]1CN(C(C)c2ccc(C(F)(F)F)cc2)[C@H](CC)CN1c1nc(=O)n(C)c2ccc(C#N)nc12 (single isomer, unassigned) [Example 21]
(C) CC[C@H]1CN(C(C)c2ccc(C)nc2)[C@H](CC)CN1c1nc(=O)n(C)c2ccc(C#N)nc12 (stereo partly drawn) [Example 229]
Place the items in sequence of falling IC50. Thanks in advance for listing the labels in the requested order.
C, A, B

* * *

target desc: human DGKζ (Homo sapiens (Human), UniProt Q13574)
experiment description: DGKζ LIPGLO assay (extruded liposome substrate, ADP-Glo luminescence)
Assay type: biochemical
protocol conditions: liposome assay; read-out: DGK zeta LIPGLO IC50
pIC50: −log10 of the molar value.
readout name: pIC50

Here are 3 molecules together with their reported answers.
molecule | recorded value
CC[C@H]1CN(C(C)c2ccc(CN3CCC(OC)CC3)cc2)[C@H](CC)CN1c1nc(=O)n(C)c2ccc(C#N)nc12 (single isomer, unassigned) [Example 273] | 5.13
CC[C@@H]1CN(c2nc(=O)n(C)c3ccc(C#N)nc23)[C@@H](C)CN1C(c1ccc(F)cc1)c1cc(C2CC2)on1 (single isomer, unassigned) [Example 102] | 7.03
CC[C@@H]1CN(c2nc(=O)n(C)c3ccc(C#N)nc23)[C@@H](CC)CN1Cc1ccc(C2CC2)cc1F | 6.72

(1) CCC(c1ccc(C#N)cc1)N1C[C@H](CC)N(c2nc(=O)n(C)c3ccc(C#N)nc23)C[C@H]1CC (stereo partly drawn) [Example 221]
(2) CC[C@H]1CN(C(C)c2ccc(CO)cc2)[C@H](CC)CN1c1nc(=O)n(C)c2ccc(C#N)nc12 (stereo partly drawn) [Example 270]
(3) CC[C@H]1CN(C(C)c2ccc(OCC3CC3)cc2)[C@H](CC)CN1c1nc(=O)n(C)c2ccc(C#N)nc12 (single isomer, unassigned) [Example 24]
Rank order required: pIC50, descending. Returns: the labels arranged in the requested order.
1, 3, 2

* * *

target desc: human DGKα (Homo sapiens (Human), UniProt P23743)
Sequence (P23743 whole entry, looked up): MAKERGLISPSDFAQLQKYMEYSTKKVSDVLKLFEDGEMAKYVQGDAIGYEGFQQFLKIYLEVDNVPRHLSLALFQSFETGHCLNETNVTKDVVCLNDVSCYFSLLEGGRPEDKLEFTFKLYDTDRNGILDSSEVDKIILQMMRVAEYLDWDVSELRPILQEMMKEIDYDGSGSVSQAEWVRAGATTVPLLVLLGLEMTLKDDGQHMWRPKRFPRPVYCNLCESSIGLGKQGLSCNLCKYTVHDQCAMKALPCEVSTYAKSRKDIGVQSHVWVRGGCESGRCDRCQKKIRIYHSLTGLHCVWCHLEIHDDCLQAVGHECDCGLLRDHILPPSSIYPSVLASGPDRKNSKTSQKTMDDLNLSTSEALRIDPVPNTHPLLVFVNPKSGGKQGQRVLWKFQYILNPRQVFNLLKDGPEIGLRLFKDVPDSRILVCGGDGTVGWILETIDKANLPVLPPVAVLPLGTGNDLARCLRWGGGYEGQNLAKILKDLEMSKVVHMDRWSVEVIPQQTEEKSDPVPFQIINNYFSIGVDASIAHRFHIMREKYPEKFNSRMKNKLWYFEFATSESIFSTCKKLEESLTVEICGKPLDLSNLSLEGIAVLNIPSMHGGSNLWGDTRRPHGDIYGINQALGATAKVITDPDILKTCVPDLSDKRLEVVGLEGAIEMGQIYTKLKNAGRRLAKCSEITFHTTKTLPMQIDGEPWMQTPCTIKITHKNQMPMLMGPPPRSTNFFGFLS
experiment description: DGKα LIPGLO assay (extruded liposome substrate, ADP-Glo luminescence)
Type: biochemical
protocol conditions: liposome assay; read-out: DGK alpha LIPGLO IC50
readout name: IC50 (nM)

(a) CC[C@H]1CN(C(c2ccc(F)cc2)c2ccc(C(F)(F)F)cn2)[C@H](C)CN1c1nc(=O)n(C)c2ccc(C#N)nc12 (stereo partly drawn) [Example 115]
(b) CC[C@@H]1CN(c2nc(=O)n(C)c3ccc(C#N)nc23)[C@@H](C)CN1C(c1ccc(F)cc1)c1ccon1 (single isomer, unassigned) [Example 73]
Which item exceeds the other in IC50, a or b ? Write down the label attached to your selection.
a

(1) CC[C@H]1CN(C(C)c2ccc(C(F)(F)F)cc2F)[C@H](C)CN1c1nc(=O)n(C)c2ccc(C#N)nc12 (stereo partly drawn) [Example 118]
(2) CC(c1ccc(C(F)(F)F)cc1)N1C[C@H](C)N(c2nc(=O)n(C)c3ccc(C#N)nc23)C[C@H]1C (single isomer, unassigned) [Example 141]
Just tell me: smaller IC50 value, 1 or 2 ? Return value: the label identifying the chosen record.
1
(1: 95 nM, 2: 1270 nM)

(a) CC(c1ccc(OC(F)(F)F)c(F)c1)N1C[C@H](C)N(c2nc(=O)n(C)c3ccc(C#N)nc23)C[C@H]1C (single isomer, unassigned) [Example 160]
(b) CCC(c1ccc(OC(F)(F)F)cc1F)N1C[C@H](CC)N(c2nc(=O)n(C)c3ccc(C#N)nc23)C[C@H]1CC (single isomer, unassigned) [Example 12]
Of a and b , which shows the smaller IC50 value? Write down the label attached to your selection.
a
(a: 110 nM, b: 410 nM)

* * *

target desc: human DGKα (Homo sapiens (Human), UniProt P23743)
experiment description: DGKα ADPGLO assay (detergent/lipid micelle substrate)
Type: biochemical
protocol conditions: ADPGLO assay; read-out: DGK alpha ADPGLO IC50
readout name: IC50 (nM)

Reference set, count: 8
compound | scale unit | IC50
CC[C@@H]1CN(c2nc(=O)n(C)c3ccc(C#N)nc23)[C@@H](C)CN1C(c1nc(C2CC2)no1)C(C)C (some centres unmarked) [Example 366] | nM | 1450
CCC(c1ccc(C(F)(F)F)cc1)N1C[C@H](CC)N(c2nc(=O)n(C)c3ccc(OC)nc23)C[C@H]1CC (some centres unmarked) [Example 436] | nM | 12200
CC[C@@H]1CN(c2nc(=O)n(C)c3ccc(C#N)nc23)[C@@H](C)CN1C(C)c1ccc(CNC(=O)OC)cc1 (some centres unmarked) [Example 359] | nM | 24
CC(c1ccc(CN2CC3(COC3)C2)cc1)N1C[C@H](C)N(c2nc(=O)n(C)c3ccc(C#N)nc23)C[C@H]1C (some centres unmarked) [Example 392] | nM | 2840
CC[C@@H]1CN(c2nc(=O)n(C)c3ccc(C#N)nc23)[C@@H](CO)CN1C(C)c1ccc(C(F)(F)F)cc1 (single isomer, unassigned) [Example 412] | nM | 9670
CCC(c1ccc(OCC2CC2)cc1)N1C[C@H](C)N(c2nc(=O)n(C)c3ccc(C#N)nc23)C[C@H]1CC (some centres unmarked) [Example 308] | nM | 62
CCC(c1ccc(C2OCCO2)cc1)N1C[C@H](C)N(c2nc(=O)n(C)c3ccc(C#N)nc23)C[C@H]1CC (some centres unmarked) [Example 331] | nM | 38
CC[C@@H]1CN(c2nc(=O)n(C)c3ccc(C(F)F)nc23)[C@@H](C)CN1C(C)c1ccc(C(F)(F)F)cc1 (some centres unmarked) [Example 441] | nM | 190

(P) CCC(c1ccc(OC2CC2)cc1)N1C[C@H](C)N(c2nc(=O)n(C)c3ccc(C#N)nc23)C[C@H]1CC (some centres unmarked) [Example 311]
(Q) CCC(C1CC1)N1C[C@H](C)N(c2nc(=O)n(C)c3ccc(C#N)nc23)C[C@H]1C (some centres unmarked) [Example 454]
// pick min by IC50: P , Q // caller expects the label of the chosen entry
P
(P: 13 nM, Q: 14200 nM)

* * *

target desc: human DGKα (Homo sapiens (Human))
experiment description: DGKα ADPGLO assay (detergent/lipid micelle substrate)
Assay type: biochemical
protocol conditions: ADPGLO assay; read-out: DGK alpha ADPGLO IC50
pIC50: −log10 of the molar value.
readout name: pIC50

molecule | pIC50
CC[C@H]1CN(C(c2ccc(F)cc2)c2noc(C3CC3)n2)[C@H](CC)CN1c1nc(=O)n(C)c2ccc(C#N)nc12 (single isomer, unassigned) [Example 371] | 7.89

(a) CCC(c1ccc(C2CC2)cc1F)N1C[C@H](C)N(c2nc(=O)n(C)c3ccc(C#N)nc23)C[C@H]1C (stereo partly shown) [Example 381]
(b) CCC(N1C[C@H](C)N(c2nc(=O)n(C)c3ccc(C#N)nc23)C[C@H]1C)C12CC(C(F)(F)F)(C1)C2 (stereo partly shown) [Example 447]
(c) CCOc1ccc(C(CC)N2C[C@H](C)N(c3nc(=O)n(C)c4ccc(C#N)nc34)C[C@H]2CC)cc1 (stereo partly shown) [Example 306]
(d) CCC(N1C[C@H](C)N(c2nc(=O)n(C)c3ccc(C#N)nc23)C[C@H]1C)C12CC(C(F)(F)F)(C1)C2 (single isomer, unassigned) [Example 449]
(e) CCOc1ccc(C(CC)N2C[C@H](C)N(c3nc(=O)n(C)c4ccc(C#N)nc34)C[C@H]2CC)cc1 (stereo partly shown) [Example 307]
Sort ascending by pIC50. Write the labels in rank order as requested.
b, d, a, e, c
(b: 4.87, d: 5.13, a: 6.07, e: 6.85, c: 7.96)

* * *

target desc: human DGKζ (Homo sapiens (Human), UniProt Q13574)
experiment description: DGKζ LIPGLO assay (extruded liposome substrate, ADP-Glo luminescence)
Type: biochemical
protocol conditions: liposome assay; read-out: DGK zeta LIPGLO IC50
readout name: IC50 (nM)

// known answers, use as guide
compound | recorded value
CC[C@H]1CN(C(C)c2ccc(C(F)(F)F)cc2N2CCOCC2)[C@H](CC)CN1c1nc(=O)n(C)c2ccc(C#N)nc12 (stereo partly drawn) [Example 194] | 5250
CC[C@H]1CN(C(C)c2ccc(OC(C)C)cc2)[C@H](CC)CN1c1nc(=O)n(C)c2ccc(C#N)nc12 (single isomer, unassigned) [Example 18] | 25
COC[C@@H]1CN(c2nc(=O)n(C)c3ccc(C#N)nc23)[C@@H](C)CN1C(c1ccc(F)cc1)c1ccc(C(F)(F)F)cn1 (single isomer, unassigned) [Example 178] | 130
C[C@@H]1CN(c2nc(=O)n(C)c3ccc(C#N)nc23)[C@@H](C)CN1C(c1ccc(F)cc1)c1nc(C2CC2)no1 (single isomer, unassigned) [Example 107] | 40
COC[C@@H]1CN(c2nc(=O)n(C)c3ccc(C#N)nc23)[C@@H](C)CN1C(C)c1ccc(OC(F)(F)F)cc1 (single isomer, unassigned) [Example 177] | 770

(1) [2H]C([2H])([2H])Oc1ccc(C(CC)N2C[C@H](CC)N(c3nc(=O)n(C)c4ccc(C#N)nc34)C[C@H]2CC)cc1 (single isomer, unassigned) [Example 209]
(2) CC[C@H]1CN(C(C)c2ccc(OC(C)(C)COC)cc2)[C@H](CC)CN1c1nc(=O)n(C)c2ccc(C#N)nc12 (stereo partly drawn) [Example 188]
Which shows the larger IC50 value: 1 or 2 ? Response format: the label of the selected entry.
1
